- Test system: SW-620
- TEST METHOD NOTES: NCI tumour cell line growth inhibition, 48 h
Calls of active or inactive are those of the source. Rule as the data show it: active = GI50 up to about 1.1 µM and inactive = higher.
VALUE KIND: GI50

[
  {
    "COMPOUND": "[N-]=[N+]=NC1C(Br)C(=O)NC(=O)N1[C@H]1C[C@H](O)[C@@H](CO)O1 (stereo not given in full)",
    "RESULT": "> 100 µM (inactive)"
  },
  {
    "COMPOUND": "CCOC12SC(Nc3ccc(C)cc3)=NN1C(=S)N(C)N=C2C (stereo not given)",
    "RESULT": "> 100 µM (inactive)"
  },
  {
    "COMPOUND": "CC(O)C(CO)NC(=O)C1CSSCC(NC(=O)C(N)Cc2ccccc2)C(=O)NC(Cc2ccccc2)C(=O)NC(Cc2c[nH]c3ccccc23)C(=O)NC(CCCCN)C(=O)NC(C(C)O)C(=O)N1 (stereo not given)",
    "RESULT": "> 100 µM (inactive)"
  },
  {
    "COMPOUND": "Cc1cc(C)nc(NS(=O)(=O)c2ccc(NNC(=O)c3cccc4c(NNc5ccc(S(=O)(=O)Nc6nc(C)cc(C)n6)cc5)c5ccccc5nc34)cc2)n1",
    "RESULT": "22.1 µM (inactive)"
  },
  {
    "COMPOUND": "CCOC(=O)C1(O)C(=O)C2=C3C(=O)OC(C4OC(=O)c5c(c(O)c(O)c(O)c5C31)-c1c(cc(O)c(O)c1O)C(=O)OC1COC(=O)c3cc(O)c(O)c(O)c3-c3c(cc(O)c(O)c3O)C(=O)OC14)[C@@H]2O (stereo not given in full)",
    "RESULT": "20.7 µM (inactive)"
  }
]
